- target-under-test: human AChE (Homo sapiens, UniProt P22303)
- Sequence (P22303 32-614): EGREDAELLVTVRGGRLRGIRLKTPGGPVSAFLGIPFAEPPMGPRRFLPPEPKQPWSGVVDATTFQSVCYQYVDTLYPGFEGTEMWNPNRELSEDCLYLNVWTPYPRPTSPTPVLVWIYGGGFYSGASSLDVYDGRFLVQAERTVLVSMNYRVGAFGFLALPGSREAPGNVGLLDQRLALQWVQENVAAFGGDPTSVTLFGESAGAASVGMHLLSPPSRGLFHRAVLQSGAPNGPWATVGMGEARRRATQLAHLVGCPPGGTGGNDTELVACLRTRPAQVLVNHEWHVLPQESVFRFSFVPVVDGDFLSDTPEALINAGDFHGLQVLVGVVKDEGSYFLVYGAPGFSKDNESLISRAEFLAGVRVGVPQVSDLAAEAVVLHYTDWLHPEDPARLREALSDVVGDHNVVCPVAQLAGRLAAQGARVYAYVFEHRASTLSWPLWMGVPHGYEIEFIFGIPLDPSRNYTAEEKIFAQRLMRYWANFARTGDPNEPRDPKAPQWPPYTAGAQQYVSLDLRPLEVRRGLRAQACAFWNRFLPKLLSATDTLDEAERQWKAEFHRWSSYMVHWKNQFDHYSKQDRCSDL
- assay-procedure: Inhibition of AChE
- Type: biochemical
- measurement-setup: read-out: AChE Inhibition at 10 µM [%]
# inhibition at 10 µM annotations
Write the number in % without appending the unit.

Worked cases, answers included:
INSERT INTO assay_data (mol, outcome_measure, value_reported) VALUES
  ('COC(=O)c1nc2ccc(OCCN3CCOCC3)cc2s1', 'inhibition at 10 µM', 5.52),
  ('O=C(c1nc2ccc(OCCCN3CCCCC3)cc2s1)N1CCCCC1', 'inhibition at 10 µM', 33.6);

Next up:
Requested read-out: inhibition at 10 µM. Entry: O=C(NCCc1ccccc1)c1nc2ccc(OCCCNCCc3ccccc3)cc2s1 5.2

----------
# maps each entry to its inhibition at 10 µM
- target-under-test: human H4R (Homo sapiens, UniProt Q9H3N8)
- Sequence (Q9H3N8 whole entry): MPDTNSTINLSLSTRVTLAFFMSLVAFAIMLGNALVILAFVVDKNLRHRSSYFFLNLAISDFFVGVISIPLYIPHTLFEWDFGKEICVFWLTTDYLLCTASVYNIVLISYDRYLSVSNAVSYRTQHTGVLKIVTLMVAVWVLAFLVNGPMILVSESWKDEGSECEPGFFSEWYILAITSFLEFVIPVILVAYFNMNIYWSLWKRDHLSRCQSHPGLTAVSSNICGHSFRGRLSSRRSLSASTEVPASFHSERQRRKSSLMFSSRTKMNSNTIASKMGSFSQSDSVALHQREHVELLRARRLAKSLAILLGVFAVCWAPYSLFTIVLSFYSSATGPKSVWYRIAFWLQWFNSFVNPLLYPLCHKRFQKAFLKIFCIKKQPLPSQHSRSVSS
- assay-procedure: Human H4R radioligand displacement assay
- measurement-setup: read-out: hH4R Inhibition at 10 µM [%] (n)
Give just the numeric value; % need not be written.

// worked examples, inhibition at 10 µM included
INSERT INTO measurements (compound, value_reported) VALUES
  ('O=C(NC1CCCC1)c1nc2ccc(OCCCNC3CCCC3)cc2s1 [Compound 3i]', 50.5),
  ('O=C(NCC1CCCCC1)c1nc2ccc(OCCCCNCC3CCCCC3)cc2s1 [Compound 3l]', 49.7),
  ('COC(=O)c1nc2ccc(OCCN3CCOCC3)cc2s1 [Compound 1d]', 51.3),
  ('O=C(c1nc2ccc(OCCCCN3CCCCC3)cc2s1)N1CCCCC1 [Compound 3j]', 53.1);

Please look up its inhibition at 10 µM: CCOC(=O)c1nc2ccc(OCCN3CCCCC3)cc2s1 [Compound 1b] 61.7

# iterate: O=C(NCC1CCCCC1)c1nc2ccc(OCCCCCNCC3CCCCC3)cc2s1 [Compound 3q] 49.1

----------
- target-under-test: BuChE from human serum (Homo sapiens, UniProt P06276)
- Sequence (P06276 29-602): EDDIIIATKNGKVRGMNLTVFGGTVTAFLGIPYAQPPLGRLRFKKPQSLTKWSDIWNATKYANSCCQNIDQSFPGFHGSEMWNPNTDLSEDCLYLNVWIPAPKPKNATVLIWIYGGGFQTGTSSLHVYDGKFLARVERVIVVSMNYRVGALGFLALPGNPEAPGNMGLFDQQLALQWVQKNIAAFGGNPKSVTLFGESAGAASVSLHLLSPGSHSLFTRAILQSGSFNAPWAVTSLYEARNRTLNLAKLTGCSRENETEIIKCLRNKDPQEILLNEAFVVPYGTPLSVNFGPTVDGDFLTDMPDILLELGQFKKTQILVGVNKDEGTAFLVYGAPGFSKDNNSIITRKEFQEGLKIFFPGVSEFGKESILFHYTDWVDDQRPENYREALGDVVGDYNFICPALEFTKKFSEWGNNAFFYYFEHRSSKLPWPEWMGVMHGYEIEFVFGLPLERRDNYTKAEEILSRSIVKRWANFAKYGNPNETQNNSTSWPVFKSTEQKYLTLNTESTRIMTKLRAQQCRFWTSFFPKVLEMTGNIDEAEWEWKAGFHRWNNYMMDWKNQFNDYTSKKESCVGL
- assay-procedure: Inhibition of BuChE
- Type: biochemical
- measurement-setup: read-out: hBuChE % Inhibition at 10 µM
outcome-measure: inhibition at 10 µM (%)
Value expressed in %; do not type the unit.

# count of solved cases: 2
INSERT INTO results (mol, target_under_test, display_unit, value_reported) VALUES
  ('O=C(c1nc2ccc(OCCCCCN3CCCCC3)cc2s1)N1CCCCC1', 'BuChE from human serum (Homo sapiens, UniProt P06276)', '%', 81),
  ('O=C(c1nc2ccc(OCCCN3CCCCCC3)cc2s1)N1CCCCCC1', 'BuChE from human serum (Homo sapiens, UniProt P06276)', '%', 51);

Recorded inhibition at 10 µM for O=C(c1nc2ccc(OCCCCN3CCCC3)cc2s1)N1CCCC1 with BuChE from human serum (Homo sapiens, UniProt P06276), please? 80

----------
- target-under-test: human AChE (Homo sapiens, UniProt P22303)
- assay-procedure: Inhibition of AChE
- Assay type: biochemical
- measurement-setup: read-out: AChE Inhibition at 10 µM [%]
outcome-measure: inhibition at 10 µM (%)
Could you give me the number in %? Just the number is fine.

Please review the following examples before continuing.
INSERT INTO measurements (molecule, outcome_measure, value_reported) VALUES
  ('O=C(NCCN1CCCC1)c1nc2ccc(OCCCNCCN3CCCC3)cc2s1 [Compound 4a]', 'inhibition at 10 µM', 86.9),
  ('O=C(NC1CCCCCC1)c1nc2ccc(OCCCCCNC3CCCCCC3)cc2s1 [Compound 3p]', 'inhibition at 10 µM', 9.5),
  ('O=C(c1nc2ccc(OCCCCCN3CCCC3)cc2s1)N1CCCC1 [Compound 3s]', 'inhibition at 10 µM', 58.6),
  ('CCOC(=O)c1nc2ccc(OCCN3CCCCC3)cc2s1 [Compound 1b]', 'inhibition at 10 µM', 9.25),
  ('O=C(c1nc2ccc(OCCCN3CCCCCC3)cc2s1)N1CCCCCC1 [Compound 4b]', 'inhibition at 10 µM', 62.8),
  ('O=C(NCc1ccccc1)c1nc2ccc(OCCCNCc3ccccc3)cc2s1 [Compound 4j]', 'inhibition at 10 µM', 20.3),
  ('CCN1CCN(CCCOc2ccc3nc(C(=O)N4CCN(CC)CC4)sc3c2)CC1 [Compound 4f]', 'inhibition at 10 µM', 8.2),
  ('COC(=O)c1nc2ccc(OCCN3CCCCC3)cc2s1 [Compound 1e]', 'inhibition at 10 µM', 84);

I have this molecule here, CCOC(=O)c1nc2ccc(OCCN3CCOCC3)cc2s1 [Compound 1a] , and I need its recorded inhibition at 10 µM. 7.64

Further, for O=C(NC1CC1)c1nc2ccc(OCCCNC3CC3)cc2s1 [Compound 3g] ? 15.4

What do you get for CC1CC(C)CN(CCCOc2ccc3nc(C(=O)N4CC(C)CC(C)C4)sc3c2)C1 (centres unmarked) [Compound 4c] ? 6.9

Try this molecule too: O=C(c1nc2ccc(OCCCCN3CCCC3)cc2s1)N1CCCC1 [Compound 3n] 83

Can you check O=C(c1nc2ccc(OCCCN3CCCC3)cc2s1)N1CCCC1 [Compound 3h] next? 56.8

----------
- target-under-test: human H4R (Homo sapiens)
- assay-procedure: Human H4R radioligand displacement assay
- measurement-setup: read-out: hH4R Inhibition at 10 µM [%] (n)
Reported values of inhibition at 10 µM for individual entries
Express the result in % but write the number alone.

Illustrative cases are given below, each with its answer.
INSERT INTO measurements (mol, value_reported) VALUES
  ('O=C(NC1CCCCCC1)c1nc2ccc(OCCCCCNC3CCCCCC3)cc2s1', 58.4),
  ('O=C(c1nc2ccc(OCCCCN3CCCC3)cc2s1)N1CCCC1', 57.9),
  ('CCOC(=O)c1nc2ccc(OCCN3CCCC3)cc2s1', 54),
  ('O=C(NC1CC1)c1nc2ccc(OCCCNC3CC3)cc2s1', 30.2);

Fill blank: measured inhibition at 10 µM of the molecule O=C(c1nc2ccc(OCCCN3CCCC3)cc2s1)N1CCCC1 is ____. 54.3

# iterate: O=C(NC1CCCCCC1)c1nc2ccc(OCCCNC3CCCCCC3)cc2s1 53.5

Now consider O=C(NC1CCCCCC1)c1nc2ccc(OCCCCNC3CCCCCC3)cc2s1 . 61.5
